The reported numbers originate from paper PMC6271349.

# tested-on: native MAO-B in HepG2 (human hepatocellular liver carcinoma cell) lysate (Homo sapiens, UniProt P27338)
# Construct: endogenous in cells; host or cells: HepG2 (human hepatocellular liver carcinoma cell) lysate
# Sequence (P27338 whole entry): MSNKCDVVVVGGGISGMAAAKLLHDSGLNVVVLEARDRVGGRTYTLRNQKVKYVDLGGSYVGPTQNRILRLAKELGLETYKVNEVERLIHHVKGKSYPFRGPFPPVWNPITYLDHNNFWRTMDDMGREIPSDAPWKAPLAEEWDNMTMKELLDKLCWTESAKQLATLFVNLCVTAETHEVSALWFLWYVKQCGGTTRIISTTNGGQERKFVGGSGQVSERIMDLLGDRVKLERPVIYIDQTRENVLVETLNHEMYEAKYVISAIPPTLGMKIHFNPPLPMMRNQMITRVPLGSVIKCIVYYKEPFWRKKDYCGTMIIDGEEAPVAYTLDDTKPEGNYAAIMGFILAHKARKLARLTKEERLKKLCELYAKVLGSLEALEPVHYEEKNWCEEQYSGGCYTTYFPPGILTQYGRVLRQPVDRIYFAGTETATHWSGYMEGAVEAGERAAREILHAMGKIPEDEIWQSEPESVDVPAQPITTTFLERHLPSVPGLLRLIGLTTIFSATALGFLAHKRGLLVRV
# test-name: MAO inhibitory activity in HepG2 cell lysate (endogenous MAO-B)
# Type: biochemical
# recorded-conditions: HepG2 lysate (only endogenous MAO-B activity); repeated three times
assay-readout: IC50 (µM)

[I] C#CCN=Cc1ccccc1OCC(N)=O [Compound 25]
[II] C#CCN=Cc1ccc(OCC(N)=O)cc1 [Compound 21]
Query: Pick one: I or II . Which one has the lower reported IC50? Write down the label of the entry you select.
Response: II
(II: 0.41 µM, I: 1.81 µM)

###

# tested-on: Human recombinant Monoamine Oxidase A (Homo sapiens)
# Construct: purchased Sigma Aldrich M7316
# Sequence (P21397 1-527): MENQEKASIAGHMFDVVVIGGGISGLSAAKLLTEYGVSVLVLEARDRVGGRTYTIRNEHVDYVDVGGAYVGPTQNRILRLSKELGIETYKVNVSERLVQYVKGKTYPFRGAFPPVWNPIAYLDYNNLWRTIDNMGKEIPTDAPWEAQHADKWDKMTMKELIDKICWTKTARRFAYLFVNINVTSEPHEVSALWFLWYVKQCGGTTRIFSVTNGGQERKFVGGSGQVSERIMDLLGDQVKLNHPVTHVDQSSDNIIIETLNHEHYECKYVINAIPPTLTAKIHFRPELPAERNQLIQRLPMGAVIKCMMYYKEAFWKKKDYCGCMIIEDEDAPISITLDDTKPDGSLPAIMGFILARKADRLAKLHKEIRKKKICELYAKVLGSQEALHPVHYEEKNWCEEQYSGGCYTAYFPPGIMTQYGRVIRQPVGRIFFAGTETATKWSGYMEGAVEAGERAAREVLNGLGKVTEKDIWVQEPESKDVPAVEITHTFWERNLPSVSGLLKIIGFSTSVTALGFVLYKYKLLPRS
# test-name: MAOs inhibitory assay (fluorescence-based microplate), MAO-A
# Format: biochemical
# recorded-conditions: SI = (IC50 of MAO-B)/(IC50 of MAO-A)
assay-readout: SI (selectivity index)

// solved cases for SI (selectivity index) follow
INSERT INTO assay_data (molecule, tested_on, reported) VALUES
  ('NC(=O)COc1ccc(C=NCc2ccccc2)cc1', 'Human recombinant Monoamine Oxidase A (Homo sapiens)', 5.99),
  ('CC(C)(C)OC(=O)Nc1ccc(OCC(N)=O)cc1', 'Human recombinant Monoamine Oxidase A (Homo sapiens)', 1.51),
  ('NC(=O)COc1ccccc1C1=NCCN1', 'Human recombinant Monoamine Oxidase A (Homo sapiens)', 3.84);

[1] NC(=O)COc1ccccc1Cl
[2] NC(=O)COc1ccccc1C=O
Query: Param metric = SI (selectivity index); output whichever of 1 , 2 has the minimum value. Indicate which entry you chose by stating its label.
Response: 2

[I] CC(=O)Nc1ccc(OCC(N)=O)cc1
[II] COc1ccc(OCC(N)=O)cc1 [Compound 12, 2-(4-Methoxyphenoxy)acetamide]
[III] NC(=O)COc1ccc(C=O)cc1
Query: # rank_down: sort by SI (selectivity index), max first Answer with the labels in sequence, matching the requested order.
Response: II, I, III
(II: 245, I: 9.07, III: 5.13)

[a] NC(=O)COc1ccccc1
[b] Cc1ccc(OCC(N)=O)cc1C
[c] Cc1ccccc1OCC(N)=O
[d] NC(=O)COc1ccc(F)cc1
Query: // sort entries: SI (selectivity index), high to low Give the labels in the order requested.
Response: c, a, b, d
(c: 25.5, a: 11.27, b: 4.73, d: 2.77)

###

# tested-on: Human recombinant Monoamine Oxidase B (Homo sapiens)
# Construct: purchased Sigma Aldrich M7441
# test-name: MAOs inhibitory assay (fluorescence-based microplate), MAO-B
# Type: biochemical
# recorded-conditions: recombinant enzyme; inhibitor incubated 37 °C 3 h, borate buffer pH 8.4; mean IC50
assay-readout: IC50 (µM)

INSERT INTO measurements (compound, tested_on, assay_readout, reported) VALUES
  ('Cc1ccc(OCC(N)=O)cc1 [Compound 10]', 'Human recombinant Monoamine Oxidase B (Homo sapiens)', 'IC50', 541);

[P] C#CCN=Cc1ccc(OCC(N)=O)cc1 [Compound 21]
[Q] Cc1ccc(OCC(N)=O)cc1C [Compound 8]
[R] NC(=O)COc1ccccc1C(=O)O [Compound 13]
Query: # rank_down: sort by IC50, max first API: response body holds the labels in the requested order.
Response: Q, R, P

###

# tested-on: Human recombinant Monoamine Oxidase B (Homo sapiens)
# Construct: purchased Sigma Aldrich M7441
# test-name: MAOs inhibitory assay (fluorescence-based microplate), MAO-B
# Assay type: biochemical
# recorded-conditions: recombinant enzyme; inhibitor incubated 37 °C 3 h, borate buffer pH 8.4; mean IC50
assay-readout: IC50 (µM)

// worked examples, IC50 included
INSERT INTO measurements (compound, result_unit, reported) VALUES
  ('C#CCN=Cc1ccccc1OCC(N)=O', 'µM', 0.176),
  ('CC(=O)Nc1ccc(OCC(N)=O)cc1', 'µM', 553),
  ('NC(=O)COc1ccc(C=NCc2ccccc2)cc1', 'µM', 575),
  ('NC(=O)COc1ccccc1C1=NCCN1', 'µM', 714);

[I] Cc1ccc(SCC(N)=O)cc1C
[II] NC(=O)COc1ccccc1
Query: Given the listed records, identify the one among I and II with higher IC50. // output: label of the selected item
Response: II
(II: 778 µM, I: 366 µM)

###

# tested-on: Human recombinant Monoamine Oxidase A (Homo sapiens)
# Construct: purchased Sigma Aldrich M7316
# test-name: MAOs inhibitory assay (fluorescence-based microplate), MAO-A
# Type: biochemical
# recorded-conditions: SI = (IC50 of MAO-B)/(IC50 of MAO-A)
assay-readout: SI (selectivity index)

INSERT INTO assay_data (molecule, assay_readout, reported) VALUES
  ('C#CCN=Cc1ccc(OCC(N)=O)cc1 [Compound 21]', 'SI (selectivity index)', 4.22),
  ('NC(=O)CSc1ccccc1 [Compound 17]', 'SI (selectivity index)', 3.87),
  ('C#CCN=Cc1ccccc1OCC(N)=O [Compound 25]', 'SI (selectivity index)', 2.59);

[P] NC(=O)COc1ccc2ccccc2c1 [Compound 2]
[Q] NC(=O)COc1ccc(Cl)cc1 [Compound 4]
[R] NC(=O)COc1ccc(C2=NCCN2)cc1 [Compound 19]
Query: Hey, quick one: sort these by SI (selectivity index), largest value first please. Answer format: the labels, in the requested order.
Response: R, P, Q

###

# tested-on: Human recombinant Monoamine Oxidase A (Homo sapiens)
# Construct: purchased Sigma Aldrich M7316
# test-name: MAOs inhibitory assay (fluorescence-based microplate), MAO-A
# Type: biochemical
# recorded-conditions: recombinant enzyme; read-out: IC50 value (MAO-A)
# Description: All of these compounds were evaluated for their inhibitory abilities towards MAOs. The inhibition activities against MAO-A and MAO-B of the synthesized compounds were investigated by our reported method. Silica gel (100–200 mesh, Qingdao Haiyang Chemical Co., Qingdao, China) was used for flash column chromatography. Analytical thin-layer chromatography was performed with GF254 silica gel. ^1H-NMR spectra were recorded on a Bruker Avance 300 MHz apparatus. […]
assay-readout: IC50 (nM)
Numeric answer only, unit nM assumed.

Query: Name the reported IC50 value associated with the compound C#CCN=Cc1ccc(OCC(N)=O)cc1
Response: 18

###

# tested-on: Human recombinant Monoamine Oxidase A (Homo sapiens)
# Construct: purchased Sigma Aldrich M7316
# test-name: MAOs inhibitory assay (fluorescence-based microplate), MAO-A
# Format: biochemical
# recorded-conditions: recombinant enzyme; inhibitor incubated 37 °C 3 h, borate buffer pH 8.4; mean IC50; read-out: IC50 (μM) MAO-A
assay-readout: IC50 (µM)

INSERT INTO results (compound, tested_on, assay_readout, result_unit, reported) VALUES
  ('NC(=O)COc1ccc(C=O)cc1', 'Human recombinant Monoamine Oxidase A (Homo sapiens)', 'IC50', 'µM', 89);

[a] NC(=O)COc1ccc(F)cc1
[b] Cc1ccc(OCC(N)=O)cc1
Query: I'm curious, which of these has a smaller IC50 number: a or b ? Please respond with the label that marks your chosen entry.
Response: b
(b: 3 µM, a: 92 µM)

[A] Cc1ccc(SCC(N)=O)cc1C
[B] NC(=O)COc1ccc2ccccc2c1
[C] COc1ccccc1OCC(N)=O
[D] COc1ccc(OCC(N)=O)cc1 [Compound 12, 2-(4-Methoxyphenoxy)acetamide]
[E] NC(=O)COc1ccc(C2=NCCN2)cc1
Query: Exam item: list the entries in increasing order of IC50. Your reply should list the labels following the order given in the request.
Response: D, E, C, B, A

[A] NC(=O)COc1ccccc1C(=O)O
[B] NC(=O)COc1ccccc1C=O
[C] NC(=O)COc1ccccc1
[D] Cc1ccccc1OCC(N)=O
Query: # desc sort on IC50 across 4 compounds Provide the ranking by listing each label in its place in the requested order.
Response: A, B, C, D

[P] NC(=O)CSc1ccccc1
[Q] COC(=O)c1ccccc1OCC(N)=O
[R] CC(=O)Nc1ccc(OCC(N)=O)cc1
Query: Ranking field: IC50; order: falling. Write the labels out in the order the request specifies.
Response: P, Q, R
(P: 166 µM, Q: 108 µM, R: 61 µM)
